Experiment: SV40 cytopathic effect inhibition and cytotoxicity, confirmation, SV40 T antigen inhibitor project, BSC cells (AID 2615)
Details: BSC cells SV40 infection; CPE inhibition; series mostly up to 200 µM
Active and inactive are the calls of the source. How the calls were made is not given here.
propertyMeasured: outcome

Here is how some molecules turned out for outcome.
molecule	outcome
Nc1nc2ccc(C(=O)N3CCOCC3)cc2s1	inactive
Nc1nc2ccc(C(=O)N3CCCCC3)cc2s1	inactive
Cc1ccc2c(c1)C1C=CCC1C(C(=O)O)N2 (stereo unspecified)	inactive
CCN(CC)C(=O)c1ccc2nc(N)sc2c1	inactive

// sample `Cc1cc(C)c2c(=O)n(CC(=O)Nc3cccc(Cl)c3C)sc2n1` , its outcome was inactive

// sample `Nc1nc2ccc(S(=O)(=O)N3CCCCC3)cc2s1` , its outcome was inactive
